Just for reference, ChEMBL document CHEMBL2021789 is where these values come from.

Assay: Competitive inhibition of Streptococcus pneumoniae ASADH using aspartyl semialdehyde as substrate using Dixon plot analysis
Quick reference: Ki of the listed items.

| Record smiles | Inequality operator | Ki (µM) |
| --- | --- | --- |
| O=c1[nH]c2ccc([N+](=O)[O-])cc2[nH]1 | = | 400 |
| CCn1c(=O)n(CC)c2cc([N+](=O)[O-])ccc21 | > | 4000 |
| CN1C(=O)c2ccc([N+](=O)[O-])cc2C1=O | = | 890 |
| O=C(O)c1cc(C(=O)O)cc(C(=O)Nc2ccc([N+](=O)[O-])cc2)c1 | = | 110 |
| COC(=O)c1cc(C(=O)Nc2ccc([N+](=O)[O-])cc2)cc(C(=O)OC)c1 | > | 20000 |
| O=C(O)c1ccc(C(=O)O)nc1 | = | 690 |
